Recorded values, source paper PMC7156612.

Assay: Dahl salt-sensitive rat model
Type: in vivo
Conditions: male, Dahl salt-sensitive (DSS), rat, plasma, oral; DSS rats, 10 mg/kg/day in chow, week 6, n=6; read-out: average total plasma concentration of olinciguat
Description: The Dataquest A.R.T.™ acquisition and analysis system (Data Sciences International [DSI], St. Paul, MN) was employed to monitor and analyze hemodynamic data from conscious, freely moving rats surgically implanted with a telemetry pressure transmitter (PA-C40). […] Arterial hemodynamics were measured continuously and recorded throughout the study. […] In the DSS model, daily MAP (24-h average) data were analyzed using two-way ANOVA, with time and treatment group as independent variables. […]
RECORDED_METRIC: concentration at 6 weeks (nM)
Note: unit nM is implicit; provide only the numeric part.

Query NC(=O)[C@](O)(CNc1nc(-c2cc(-c3ccon3)n(Cc3ccccc3F)n2)ncc1F)C(F)(F)F [olinciguat] yields concentration at 6 weeks of 25.4

----------
Target: sGC (Homo sapiens, UniProt Q02108+Q02153)
Construct: HEK-293 cells endogenously expressing sGC were treated with olinciguat; host or cells: HEK-293
Sequence (Q02153 whole entry): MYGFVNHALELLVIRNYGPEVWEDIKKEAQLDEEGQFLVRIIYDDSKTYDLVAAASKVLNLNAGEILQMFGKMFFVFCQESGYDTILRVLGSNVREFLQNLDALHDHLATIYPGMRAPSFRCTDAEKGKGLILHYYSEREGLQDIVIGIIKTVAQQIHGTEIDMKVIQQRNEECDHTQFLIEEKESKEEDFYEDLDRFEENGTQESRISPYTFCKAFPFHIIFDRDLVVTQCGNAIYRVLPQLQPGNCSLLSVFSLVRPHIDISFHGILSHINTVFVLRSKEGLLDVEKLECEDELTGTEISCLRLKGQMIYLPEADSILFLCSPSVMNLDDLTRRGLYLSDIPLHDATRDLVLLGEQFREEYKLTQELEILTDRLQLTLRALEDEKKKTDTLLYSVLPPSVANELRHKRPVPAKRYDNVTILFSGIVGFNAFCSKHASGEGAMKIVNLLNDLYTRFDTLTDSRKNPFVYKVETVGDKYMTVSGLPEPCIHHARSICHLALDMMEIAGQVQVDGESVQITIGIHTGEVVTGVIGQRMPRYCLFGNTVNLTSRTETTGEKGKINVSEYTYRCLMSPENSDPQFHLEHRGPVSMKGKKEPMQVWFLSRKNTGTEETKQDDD
Sequence (Q02108 whole entry): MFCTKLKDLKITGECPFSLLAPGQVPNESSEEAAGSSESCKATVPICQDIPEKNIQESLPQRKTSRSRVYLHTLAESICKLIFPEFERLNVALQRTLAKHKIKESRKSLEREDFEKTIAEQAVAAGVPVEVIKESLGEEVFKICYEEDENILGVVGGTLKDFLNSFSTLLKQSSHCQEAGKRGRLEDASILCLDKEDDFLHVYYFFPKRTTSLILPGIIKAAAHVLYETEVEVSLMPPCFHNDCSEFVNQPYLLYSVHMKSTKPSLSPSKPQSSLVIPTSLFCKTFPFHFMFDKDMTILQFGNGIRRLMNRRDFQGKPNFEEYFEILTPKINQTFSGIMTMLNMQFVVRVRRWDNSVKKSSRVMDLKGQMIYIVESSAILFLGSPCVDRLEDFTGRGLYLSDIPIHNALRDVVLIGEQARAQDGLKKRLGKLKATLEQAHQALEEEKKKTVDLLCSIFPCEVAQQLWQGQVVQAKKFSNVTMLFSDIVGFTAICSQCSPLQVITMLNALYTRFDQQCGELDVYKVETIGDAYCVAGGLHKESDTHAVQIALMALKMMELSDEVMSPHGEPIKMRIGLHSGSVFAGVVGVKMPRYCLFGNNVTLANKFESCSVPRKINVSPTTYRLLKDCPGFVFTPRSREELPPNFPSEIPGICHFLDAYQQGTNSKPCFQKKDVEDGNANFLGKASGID
Test: sGC whole cell assay (HEK-293, cGMP production)
Assay type: cell-based
Settings: HEK-293 cells endogenously expressing sGC, in the presence of 10 µM DETA; geometric mean of 14 experiments, 95% CI 42.7 to 105 nM; read-out: EC50, cGMP production
Procedure: The human embryonic kidney (HEK)-293 whole cell assay was performed as described ([Tobin et al., 2018]). Briefly, HEK-293 cells (ATCC, Manassas, VA, #CRL-1573) were maintained in Dulbecco's modified Eagle's medium (DMEM) containing serum and antibiotics. […] Cells were lysed with ice-cold 10% acetic acid then centrifuged, and cGMP levels in supernatants were determined by reverse-phase liquid chromatography with tandem mass spectrometry (LC-MS/MS). […]
RECORDED_METRIC: EC50 (nM)
Note: unit nM is implicit; provide only the numeric part.

Query NC(=O)[C@](O)(CNc1nc(-c2cc(-c3ccon3)n(Cc3ccccc3F)n2)ncc1F)C(F)(F)F [olinciguat] yields EC50 of 73.8

----------
Test: Pharmacokinetics in Sprague-Dawley rats
Type: in vivo
Settings: both sexes, Sprague-Dawley, rat, plasma, intravenous, 0.3 mg/kg; male and female rats, mean; read-out: mean pharmacokinetic volume of distribution
Procedure: Male (n=12, 2 groups of 6) and female (n=12, 2 groups of 6) Sprague-Dawley rats (275–300 g) with indwelling jugular vein cannulae were fasted overnight prior to dosing. […] Blood from i.v. and p.o. dosed rats was collected at 16 timepoints (2 groups of rats, 8 timepoints per group) over 24 h. […] In the pharmacokinetic studies and in all in vivo studies, olinciguat plasma concentrations were determined by LC-MS/MS. […]
RECORDED_METRIC: Vd (L/kg)
Note: unit L/kg is implicit; provide only the numeric part.

Query NC(=O)[C@](O)(CNc1nc(-c2cc(-c3ccon3)n(Cc3ccccc3F)n2)ncc1F)C(F)(F)F yields Vd of 1

----------
test: Olinciguat plasma concentration in hemodynamic study (pooled Wistar and SHR); type: in vivo, rat; settings: male, Wistar and SHR (spontaneously hypertensive rat), pooled, rat, plasma, oral; 3 mg/kg p.o. QD; mean and SEM of 6 animals (n=3 Wistar, n=3 SHR); read-out: average plasma concentration 1 h after dosing on Day 4
RECORDED_METRIC: concentration at 1 h

Query NC(=O)[C@](O)(CNc1nc(-c2cc(-c3ccon3)n(Cc3ccccc3F)n2)ncc1F)C(F)(F)F [olinciguat] yields concentration at 1 h of 132 nM
